# System: HCT-15
# procedure_summary: In vitro cytotoxic activity against HCT-15 (colon) using SRB (sulforhodamine B) assay
# Type: functional, cell-based, Homo sapiens
# condition_info: Homo sapiens, HCT-15; read-out: IC50
Checkbox rule: IC50 lower than 0.2 µg/mL = satisfied; IC50 not lower than 0.2 µg/mL = not satisfied.

# smiles, system_name, class_assignment
rows = [
    ("O=C1C(Cl)=C(Nc2ccc(I)cc2)C(=O)c2cnccc21", "HCT-15", "satisfied"),
    ("O=C1C(Cl)=C(Nc2ccc(Br)cc2)C(=O)c2cnccc21", "HCT-15", "satisfied"),
    ("CCOc1ccc(NC2=C(Cl)C(=O)c3cccnc3C2=O)cc1", "HCT-15", "not satisfied"),
    ("O=C1C(Cl)=C(Nc2ccc(I)cc2)C(=O)c2ncccc21", "HCT-15", "not satisfied"),
    ("COc1ccc(NC2=C(Cl)C(=O)c3ccncc3C2=O)cc1", "HCT-15", "satisfied"),
    ("O=C1C(Cl)=C(Nc2ccccc2)C(=O)c2ncccc21", "HCT-15", "not satisfied"),
    ("CCOc1ccc(NC2=C(Cl)C(=O)c3ccncc3C2=O)cc1", "HCT-15", "satisfied"),
    ("O=C1C(Cl)=C(Nc2ccc(CCO)cc2)C(=O)c2ncccc21", "HCT-15", "not satisfied"),
]
